Item-by-item account of MIC
# Test system: Enterococcus faecalis
# test-name: Antimicrobial activity against Enterococcus faecalis ATCC 29212 by broth microdilution method
# Assay type: functional
Please state the figure in mg/L; there is no need to write the unit.

N[C@@H]1CONC1=O [CYCLOSERINE]    128

Shifting focus to the molecule that follows.
Problem: Item COc1ccc2nc(OC)c([C@@H](c3ccccc3)[C@](O)(CCc3ccccc3)CCN(C)C)cc2c1 has what recorded MIC?
Result: 8
